The reported measurements were obtained from paper PMC9482650.

target: PICK1, Q9NRD5; assay: holdup assay; design: key: below the threshold = too weak to quantify, mostly under pKd 3.1 to 4; settings: plain residues with an end cap or a label only (N-terminal biotin on a linker: ado-ado)
Sequence (Q9NRD5 17-115): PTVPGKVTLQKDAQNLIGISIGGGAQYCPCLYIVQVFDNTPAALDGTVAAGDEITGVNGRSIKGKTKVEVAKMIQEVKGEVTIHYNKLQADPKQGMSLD
attribute_measured: pKd

Some entries whose results are on file:
binder="ELKAEDEVQI [DCHS2, Q6V1P9]" attribute_measured=pKd measured_result=4.13
binder="FHSIKQSTAV [CRHR1, P34998]" attribute_measured=pKd measured_result="below the threshold"
binder="GQNMTVSVVI [PRLHR, P49683]" attribute_measured=pKd measured_result="below the threshold"
binder="IQISELETNV [SLC1A7, O00341]" attribute_measured=pKd measured_result=4.18
binder="PLPPEEESWV [GAS2L2, Q8NHY3]" attribute_measured=pKd measured_result="below the threshold"

Qu. Please look up its pKd: PSDSVGKDVF [EGLN1, Q9GZT9]
Ans. below the threshold

Qu. Please look up its pKd: LPPPESESKV [KCNJ9, Q92806]
Ans. 4
